system-under-test: T1, human GIP receptor (human, UniProt P48546 22-466)
T1 sequence (looked up): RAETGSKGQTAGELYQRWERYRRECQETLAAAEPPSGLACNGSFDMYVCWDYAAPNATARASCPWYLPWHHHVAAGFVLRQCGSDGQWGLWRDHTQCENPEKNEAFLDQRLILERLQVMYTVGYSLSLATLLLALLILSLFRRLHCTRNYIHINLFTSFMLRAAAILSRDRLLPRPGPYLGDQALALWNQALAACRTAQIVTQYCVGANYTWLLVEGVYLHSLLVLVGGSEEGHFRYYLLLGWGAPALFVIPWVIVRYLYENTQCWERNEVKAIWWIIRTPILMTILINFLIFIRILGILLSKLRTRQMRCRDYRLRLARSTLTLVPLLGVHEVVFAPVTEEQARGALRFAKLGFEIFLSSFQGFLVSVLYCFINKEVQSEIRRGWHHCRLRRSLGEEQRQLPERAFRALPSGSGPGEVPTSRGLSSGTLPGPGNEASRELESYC
protocol-notes: cell-based or functional assay
Bridge positions count the residues as written; N and C are the ends. Square brackets hold non-standard residues; d marks the D form. Ends that are not written are not given here. Aib = CC(C)(N)C(=O)O
Each entry below carries its reported In Vitro Activity Compared to Native Peptide (%) vs. GIP (relative titer from cAMP EC50).

Use the examples below as a reference point.
INSERT INTO measurements (binder, recorded_result) VALUES
  ('Y[Aib]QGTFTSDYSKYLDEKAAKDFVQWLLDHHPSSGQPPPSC (bridge 16-20; not fully specified (bridges)) [trigonal agonist of SEQ ID NO: 32]', '35.5%'),
  ('H[Aib]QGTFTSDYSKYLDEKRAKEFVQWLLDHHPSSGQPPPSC (bridge 16-20; not fully specified (bridges)) [trigonal agonist of SEQ ID NO: 11]', '2.7%'),
  ('Y[Aib]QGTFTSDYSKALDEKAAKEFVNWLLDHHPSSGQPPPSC (bridge 16-20; not fully specified (bridges)) [trigonal agonist of SEQ ID NO: 42]', '47.1%');

With those in mind, consider the next binder.
Entry Y[Aib]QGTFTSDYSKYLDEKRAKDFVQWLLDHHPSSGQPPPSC (bridge 16-20; not fully specified (bridges)) [trigonal agonist of SEQ ID NO: 31] , In Vitro Activity Compared to Native Peptide (%) vs. GIP (relative titer from cAMP EC50) reported as 11.7%
